TEST_TARGET: hCA XII (Homo sapiens, UniProt O43570)
Construct: made in house
Sequence (O43570 25-354): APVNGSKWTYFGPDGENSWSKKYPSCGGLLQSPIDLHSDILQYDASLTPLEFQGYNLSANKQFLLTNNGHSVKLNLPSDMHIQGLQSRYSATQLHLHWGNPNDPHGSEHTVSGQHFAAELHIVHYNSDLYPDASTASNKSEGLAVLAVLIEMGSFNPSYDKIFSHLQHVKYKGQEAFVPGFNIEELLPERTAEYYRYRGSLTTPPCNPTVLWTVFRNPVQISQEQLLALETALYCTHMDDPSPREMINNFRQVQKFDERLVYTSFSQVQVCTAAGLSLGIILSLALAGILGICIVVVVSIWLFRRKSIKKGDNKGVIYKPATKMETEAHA
PROTOCOL_NOTES: stopped-flow CO2 hydrase assay, hCA XII
Format: biochemical
EXPERIMENTAL_CONDITIONS: ratio of Ki values
TEST_READOUT: Selectivity Index hCA II/hCA XII

Cc1ccc(S(=O)(=O)c2ccc(C(=O)O)cc2[N+](=O)[O-])cc1 ... >64.3
O=C(O)c1ccc(Sc2ccccn2)c([N+](=O)[O-])c1 ... >609.01

Consider the additional compound presented here.
Task item: Given the entry `CC(C)(C)OC(=O)N1CCC(Nc2ccc(C(=O)O)cc2[N+](=O)[O-])CC1` , report its measured Selectivity Index hCA II/hCA XII.
Reply: >69.1

###

This listing pairs compounds with measured Ki.
TEST_TARGET: hCA I (Homo sapiens, UniProt P00915)
Construct: made in house
Sequence (P00915 whole entry): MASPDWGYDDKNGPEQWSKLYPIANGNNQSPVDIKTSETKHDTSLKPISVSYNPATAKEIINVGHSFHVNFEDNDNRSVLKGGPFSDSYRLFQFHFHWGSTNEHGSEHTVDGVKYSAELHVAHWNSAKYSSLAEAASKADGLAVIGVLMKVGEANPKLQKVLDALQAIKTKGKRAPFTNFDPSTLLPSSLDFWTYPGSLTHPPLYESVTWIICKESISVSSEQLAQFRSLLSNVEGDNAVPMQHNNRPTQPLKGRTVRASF
PROTOCOL_NOTES: stopped-flow CO2 hydrase assay, hCA I
Format: biochemical

Consider the worked cases shown below.
CC1=NN(c2ccc(C)cc2)C(=O)/C1=C/Nc1ccc(C(=O)O)cc1[N+](=O)[O-] ... > 50 µM
CS(=O)(=O)c1ccc(C(=O)O)cc1[N+](=O)[O-] ... > 50 µM
CCOC(=O)C1CCN(c2ccc(C(=O)O)cc2[N+](=O)[O-])CC1 ... 8.21 µM

Consider the additional compound presented here.
Task item: Given the entry `CC(=O)Nc1cccc(Nc2c([N+](=O)[O-])cc(C(=O)O)cc2[N+](=O)[O-])c1` , report its measured Ki.
Reply: > 50 µM

###

TEST_TARGET: hCA IX (Homo sapiens, UniProt Q16790)
Construct: made in house
PROTOCOL_NOTES: stopped-flow CO2 hydrase assay, hCA IX
Format: biochemical
EXPERIMENTAL_CONDITIONS: ratio of Ki values
TEST_READOUT: Selectivity Index hCA II/hCA IX

O=C(O)c1cc([N+](=O)[O-])c(NCCc2ccccc2)c([N+](=O)[O-])c1 ... 1.59
O=C(O)c1ccc(Sc2ccccn2)c([N+](=O)[O-])c1 ... >3125
Cc1ccc(S(=O)(=O)c2ccc(C(=O)O)cc2[N+](=O)[O-])cc1 ... >857.6
CC(C)(C)OC(=O)N1CCC(Nc2ccc(C(=O)O)cc2[N+](=O)[O-])CC1 ... >2024.3

Consider the additional compound presented here.
Task item: Given the entry `O=C(O)c1ccc(NCCc2ccc(Cl)cc2)c([N+](=O)[O-])c1` , report its measured Selectivity Index hCA II/hCA IX.
Reply: >326.8

###

TEST_TARGET: hCA IX (Homo sapiens)
Construct: made in house
PROTOCOL_NOTES: stopped-flow CO2 hydrase assay, hCA IX
Type: biochemical
EXPERIMENTAL_CONDITIONS: recombinant enzyme; errors ± 5–10%, 3 assays
pKi: −log10 of the molar value.
Quick rule: pKi of at least 7 means Condition met, below that means Condition not met.

CCOC(=O)C1CCN(c2ccc(C(=O)O)cc2[N+](=O)[O-])CC1 [Compound 6] ... Condition met
O=C(O)c1ccc(Sc2nnc(-c3cccc(Br)c3)o2)c([N+](=O)[O-])c1 [Compound 1] ... Condition met
O=C(O)c1ccc(N2CCc3ccccc32)c([N+](=O)[O-])c1 [Compound 3] ... Condition not met
O=C(O)c1ccc(Sc2ccccc2C(=O)O)c([N+](=O)[O-])c1 [Compound 4] ... Condition not met
CC(C)(C)OC(=O)N1CCC(Nc2ccc(C(=O)O)cc2[N+](=O)[O-])CC1 [Compound 15] ... Condition met

Task item: Does Cc1ccc(S(=O)(=O)c2ccc(C(=O)O)cc2[N+](=O)[O-])cc1 [Compound 11] have a reported pKi of at least 7?
Reply: Condition met

Task item: Does CC1=NN(c2ccc(C)cc2)C(=O)/C1=C/Nc1ccc(C(=O)O)cc1[N+](=O)[O-] [Compound 16] have a reported pKi of at least 7?
Reply: Condition met

Task item: Does O=C(O)c1ccc(Sc2ccccn2)c([N+](=O)[O-])c1 [Compound 10] have a reported pKi of at least 7?
Reply: Condition met

Task item: Does Cc1cc(C(=O)Nc2cc(C(=O)O)cc([N+](=O)[O-])c2)no1 [Compound 9] have a reported pKi of at least 7?
Reply: Condition not met

Task item: Does O=C(CSc1nnc(-c2ccncc2)s1)Nc1cc(C(=O)O)cc([N+](=O)[O-])c1 [Compound 14] have a reported pKi of at least 7?
Reply: Condition met

Task item: Does O=C(O)c1ccc(Sc2nnc(Sc3ccc(C(=O)O)cc3[N+](=O)[O-])s2)c([N+](=O)[O-])c1 [Compound 8] have a reported pKi of at least 7?
Reply: Condition met

Task item: Does O=C(O)c1ccc(Sc2nnnn2-c2ccccc2)c([N+](=O)[O-])c1 [Compound 17] have a reported pKi of at least 7?
Reply: Condition met

Task item: Does CS(=O)(=O)c1ccc(C(=O)O)cc1[N+](=O)[O-] [Compound 7] have a reported pKi of at least 7?
Reply: Condition met

###

TEST_TARGET: hCA II (Homo sapiens, UniProt P00918)
Construct: made in house
PROTOCOL_NOTES: stopped-flow CO2 hydrase assay, hCA II
Assay type: biochemical
EXPERIMENTAL_CONDITIONS: recombinant enzyme; errors ± 5–10%, 3 assays; read-out: Ki hCA II
TEST_READOUT: Ki

Consider the worked cases shown below.
O=C(CSc1nnc(-c2ccncc2)s1)Nc1cc(C(=O)O)cc([N+](=O)[O-])c1 [Compound 14] ... > 50 µM
N#Cc1ccc(NCCc2ccccc2)c([N+](=O)[O-])c1 [Compound 19] ... > 50 µM

Task item: Given the entry CC(C)(C)OC(=O)N1CCC(Nc2ccc(C(=O)O)cc2[N+](=O)[O-])CC1 [Compound 15] , report its measured Ki.
Reply: > 50 µM

###

TEST_TARGET: hCA I (Homo sapiens, UniProt P00915)
Construct: made in house
PROTOCOL_NOTES: stopped-flow CO2 hydrase assay, hCA I
Type: biochemical
TEST_READOUT: Ki

Consider the worked cases shown below.
O=C(CSc1nnc(-c2ccncc2)s1)Nc1cc(C(=O)O)cc([N+](=O)[O-])c1 ... > 50 µM
Cc1ccc(S(=O)(=O)c2ccc(C(=O)O)cc2[N+](=O)[O-])cc1 ... > 50 µM

Task item: Given the entry `CC(C)(C)OC(=O)N1CCC(Nc2ccc(C(=O)O)cc2[N+](=O)[O-])CC1` , report its measured Ki.
Reply: > 50 µM

###

TEST_TARGET: hCA IV (Homo sapiens)
Construct: made in house
Sequence (P22748 19-312): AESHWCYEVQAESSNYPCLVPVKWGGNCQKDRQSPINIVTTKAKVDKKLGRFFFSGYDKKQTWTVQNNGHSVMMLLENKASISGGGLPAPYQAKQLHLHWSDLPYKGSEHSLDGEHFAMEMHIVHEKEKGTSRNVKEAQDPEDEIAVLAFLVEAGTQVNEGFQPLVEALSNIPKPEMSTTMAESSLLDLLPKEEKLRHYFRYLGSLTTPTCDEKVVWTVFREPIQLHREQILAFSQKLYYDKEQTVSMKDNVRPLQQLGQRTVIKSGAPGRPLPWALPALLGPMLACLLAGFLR
PROTOCOL_NOTES: stopped-flow CO2 hydrase assay, hCA IV
Assay type: biochemical
EXPERIMENTAL_CONDITIONS: recombinant enzyme; errors ± 5–10%, 3 assays; read-out: Ki hCA IV
This listing pairs compounds with measured Ki.
Respond with the bare value in µM.

Cc1cc(C(=O)Nc2cc(C(=O)O)cc([N+](=O)[O-])c2)no1 ... 8.27

Consider the additional compound presented here.
Task item: Given the entry `O=C(O)c1ccc(Sc2nnnn2-c2ccccc2)c([N+](=O)[O-])c1` , report its measured Ki.
Reply: 3.56

###

This listing pairs compounds with measured Ki.
TEST_TARGET: hCA XII (Homo sapiens, UniProt O43570)
Construct: made in house
PROTOCOL_NOTES: stopped-flow CO2 hydrase assay, hCA XII
Assay type: biochemical
EXPERIMENTAL_CONDITIONS: recombinant enzyme; errors ± 5–10%, 3 assays; read-out: Ki hCA XII
Respond with the bare value in nM.

O=C(O)c1ccc(NCCc2ccc(Cl)cc2)c([N+](=O)[O-])c1 [Compound 5] ... 863
Cc1cc(C(=O)Nc2cc(C(=O)O)cc([N+](=O)[O-])c2)no1 [Compound 9] ... 753

Consider the additional compound presented here.
Task item: Given the entry O=C(Cc1ccccc1)Nc1ccc(C(=O)O)cc1 [Compound 18] , report its measured Ki.
Reply: 629

###

This listing pairs molecules with measured Selectivity Index hCA II/hCA XII.
TEST_TARGET: hCA XII (Homo sapiens, UniProt O43570)
Construct: made in house
PROTOCOL_NOTES: stopped-flow CO2 hydrase assay, hCA XII
Assay type: biochemical
EXPERIMENTAL_CONDITIONS: ratio of Ki values

Task item: Given the entry `O=C(O)c1ccc(Sc2nnnn2-c2ccccc2)c([N+](=O)[O-])c1` , report its measured Selectivity Index hCA II/hCA XII.
Reply: >113.4

Task item: Given the entry `O=C(O)c1ccc(NCc2cccnc2)c([N+](=O)[O-])c1` , report its measured Selectivity Index hCA II/hCA XII.
Reply: >79.0

Task item: Given the entry `O=C(O)c1ccc(NCCc2ccc(Cl)cc2)c([N+](=O)[O-])c1` , report its measured Selectivity Index hCA II/hCA XII.
Reply: >57.9

Task item: Given the entry `O=C(CSc1nnc(-c2ccncc2)s1)Nc1cc(C(=O)O)cc([N+](=O)[O-])c1` , report its measured Selectivity Index hCA II/hCA XII.
Reply: >103.7

Task item: Given the entry `CC1=NN(c2ccc(C)cc2)C(=O)/C1=C/Nc1ccc(C(=O)O)cc1[N+](=O)[O-]` , report its measured Selectivity Index hCA II/hCA XII.
Reply: >142.0

Each recorded value in this set is attributed to paper PMC5943959.
